Tested on: kochia (Kochia scoparia)
Experiment: Test A preemergence, visual injury rating 0-100
Assay type: in vivo
Conditions: 500 g ai/ha
quantity.kind: Kochia plant response rating (0 to 100 scale)

compound	readout.number
COc1cc(C2CC(C)=[N+]([O-])C2C(=O)Nc2cccc(F)c2F)ccc1C(F)(F)F (stereo not drawn) [Compound 100]	80
CC1=[N+]([O-])C(C(=O)Nc2ccccc2[S+](C)[O-])C(c2ccc(C(F)(F)F)cc2)C1 (racemic) [Compound 44]	0
CC1=[N+]([O-])C(C(=O)Nc2cccc(F)c2F)C(c2cccc(Br)n2)C1 (racemic) [Compound 65]	0
CC1=[N+]([O-])C(C(=O)Nc2ccccc2S(C)(=O)=O)C(c2ccc(C(F)(F)F)cc2)C1 (racemic) [Compound 43]	80
O=C(Nc1cccc(F)c1F)C1C(c2ccccc2)CC(C(F)(F)F)=[N+]1[O-] (racemic) [Compound 35]	0
CC1=[N+]([O-])C(C(=O)Nc2cccc(F)c2F)C(c2ccc(C(F)(F)F)c(Br)c2)C1 (racemic) [Compound 73]	60

====

Tested on: barnyardgrass (Echinochloa crus-galli)
Experiment: Test A postemergence, visual injury rating 0-100
Format: in vivo
Details: 125 g ai/ha, 0 to 100 scale
Consider the following molecules and their measured Barnyardgrass plant response rating readings.

molecule	test.system	Barnyardgrass plant response rating
CC1=[N+]([O-])[C@@H](C(=O)Nc2cccc(F)c2F)[C@H](c2ccc(C(F)(F)F)cc2)C1 (relative stereo)	barnyardgrass (Echinochloa crus-galli)	70
CC1=[N+]([O-])C(C(=O)Nc2cccc(F)c2F)C(c2ccc3c(c2)OCO3)C1 (racemic)	barnyardgrass (Echinochloa crus-galli)	50
CC1=[N+]([O-])C(C(=O)Nc2cccc(F)c2F)C(c2cc(C)n(Cc3ccc(Cl)cc3)c(=O)c2)C1 (racemic)	barnyardgrass (Echinochloa crus-galli)	0
CC1=[N+]([O-])C(C(=O)Nc2cccc(F)c2F)C(c2ccc(C(F)(F)F)c(Br)c2)C1 (racemic)	barnyardgrass (Echinochloa crus-galli)	30

====

Test system: barnyardgrass (Echinochloa crus-galli)
Assay: Test A postemergence, visual injury rating 0-100
Format: in vivo
Details: 500 g ai/ha, 0 to 100 scale
Output y for Barnyardgrass plant response rating not less than 60; output n otherwise.

compound	test.system	label
CC(C)C1=[N+]([O-])C(C(=O)Nc2cccc(F)c2F)C(c2ccc(C(F)(F)F)cc2)C1 (racemic) [Compound 122]	barnyardgrass (Echinochloa crus-galli)	n
CC1=[N+]([O-])C(C(=O)Nc2cccc(F)c2F)C(c2ccc3c(c2)OCO3)C1 (racemic) [Compound 4]	barnyardgrass (Echinochloa crus-galli)	y
CC1=[N+]([O-])C(C(=O)Nc2cccc(F)c2F)C(c2cc(C(F)(F)F)cc(C(F)(F)F)c2)C1 (racemic) [Compound 110]	barnyardgrass (Echinochloa crus-galli)	y
CC1=[N+]([O-])C(C(=O)Nc2ccccc2C(F)(F)F)C(c2ccc(C(F)(F)F)cc2)C1 (racemic) [Compound 33]	barnyardgrass (Echinochloa crus-galli)	n
CC1=[N+]([O-])C(C(=O)Nc2cccc(F)c2F)C(c2cc(C)cc(F)c2)C1 (racemic) [Compound 103]	barnyardgrass (Echinochloa crus-galli)	y
O=C(Nc1cccc(F)c1F)C1C(c2ccccc2)CC(C(F)(F)F)=[N+]1[O-] (racemic) [Compound 35]	barnyardgrass (Echinochloa crus-galli)	n
CC1=[N+]([O-])C(C(=O)Nc2cccc(F)c2F)C(c2ccc(F)c(C(F)(F)F)c2)C1 (racemic) [Compound 64]	barnyardgrass (Echinochloa crus-galli)	y
CC1=[N+]([O-])C(C(=O)Nc2cccc(F)c2F)C(c2cccc(F)c2)C1 (racemic) [Compound 8]	barnyardgrass (Echinochloa crus-galli)	y
CC1=[N+]([O-])C(C(=O)Nc2cccc(F)c2F)C(c2cccc(Br)n2)C1 (racemic) [Compound 65]	barnyardgrass (Echinochloa crus-galli)	n
CC1=[N+]([O-])C(C(=O)Nc2cccc(F)c2F)C(c2cccc(C(F)(F)F)n2)C1 (centres unmarked) [Compound 90]	barnyardgrass (Echinochloa crus-galli)	y
CC1=[N+]([O-])C(C(=O)Nc2cccc(F)c2F)C(c2cc(C)c(F)c(C)c2)C1 (racemic) [Compound 111]	barnyardgrass (Echinochloa crus-galli)	y
COc1ccc(C2CC(C)=[N+]([O-])C2C(=O)Nc2cccc(F)c2F)cc1C(F)(F)F (racemic) [Compound 74]	barnyardgrass (Echinochloa crus-galli)	y
CC1=[N+]([O-])C(C(=O)Nc2cccc(F)c2F)C(c2ccc(Cl)c(C(F)(F)F)c2)C1 (racemic) [Compound 104]	barnyardgrass (Echinochloa crus-galli)	y
CC1=[N+]([O-])C(C(=O)Nc2cccc(F)c2F)C(c2ccc(Br)cc2)C1 (racemic) [Compound 20]	barnyardgrass (Echinochloa crus-galli)	n
CCOc1cc(OC)cc(C2CC(C)=[N+]([O-])C2C(=O)Nc2cccc(F)c2F)c1 (racemic) [Compound 116]	barnyardgrass (Echinochloa crus-galli)	y
CC1=[N+]([O-])C(C(=O)Nc2cccc(F)c2F)C(c2ccc(C)c(C)c2)C1 (racemic) [Compound 24]	barnyardgrass (Echinochloa crus-galli)	y
CC1=[N+]([O-])C(C(=O)Nc2cccc(F)c2F)C(c2cccc(Cl)c2F)C1 (centres unmarked) [Compound 99]	barnyardgrass (Echinochloa crus-galli)	y
COc1cc(OC)cc(C2CC(C)=[N+]([O-])C2C(=O)Nc2cccc(F)c2F)c1 (centres unmarked) [Compound 96]	barnyardgrass (Echinochloa crus-galli)	y
CC1=[N+]([O-])C(C(=O)Nc2ccccc2[S+](C)[O-])C(c2ccc(C(F)(F)F)cc2)C1 (racemic) [Compound 44]	barnyardgrass (Echinochloa crus-galli)	n
CC1=[N+]([O-])C(C(=O)Nc2cccnc2F)C(c2ccc(C(F)(F)F)cc2)C1 (racemic) [Compound 41]	barnyardgrass (Echinochloa crus-galli)	y
CC1=[N+]([O-])C(C(=O)Nc2cccc(F)c2F)C(c2ccc(F)c(F)c2)C1 (racemic) [Compound 10]	barnyardgrass (Echinochloa crus-galli)	y
CC1=[N+]([O-])C(C(=O)Nc2cccc(F)c2Cl)C(c2ccc(C(F)(F)F)cc2)C1 (racemic) [Compound 31]	barnyardgrass (Echinochloa crus-galli)	y
CC1=[N+]([O-])C(C(=O)Nc2cccc(F)c2F)C(c2ccc(C(F)(F)F)c(Br)c2)C1 (racemic) [Compound 73]	barnyardgrass (Echinochloa crus-galli)	y
CC1=[N+]([O-])[C@@H](C(=O)Nc2ccccc2F)[C@H](c2ccc(C(F)(F)F)cc2)C1 (relative stereo) [Compound 26]	barnyardgrass (Echinochloa crus-galli)	y
CC1=[N+]([O-])C(C(=O)Nc2cccc(F)c2F)C(c2cccc(Cl)n2)C1 (centres unmarked) [Compound 89]	barnyardgrass (Echinochloa crus-galli)	n
CC1=[N+]([O-])C(C(=O)Nc2cccc(F)c2F)C(c2cccc(C3OCCO3)c2)C1 (racemic) [Compound 105]	barnyardgrass (Echinochloa crus-galli)	y

====

Quick list: Kochia plant response rating (0 to 100 scale) per entry.
Test system: kochia (Kochia scoparia)
Test: Test A preemergence, visual injury rating 0-100
Type: in vivo
Conditions: 500 g ai/ha
Text: […]
quantity.kind: Kochia plant response rating (0 to 100 scale)

compound	readout.number
CC1=[N+]([O-])C(C(=O)Nc2ccccc2C#N)C(c2ccc(C(F)(F)F)cc2)C1 (racemic)	70
CC1=[N+]([O-])C(C(=O)Nc2ccccc2C(F)(F)F)C(c2ccc(C(F)(F)F)cc2)C1 (racemic)	70
CC1=[N+]([O-])C(C(=O)Nc2cccc(F)c2F)C(c2cc(C)cc(C)c2)C1 (racemic)	90
COc1ccc(C2CC(C)=[N+]([O-])C2C(=O)Nc2cccc(F)c2F)cc1C(F)(F)F (racemic)	90

====

Test system: ragweed (common ragweed, Ambrosia elatior)
Assay: Test A postemergence, visual injury rating 0-100
Assay type: in vivo
Settings: 125 g ai/ha, 0 to 100 scale

compound	test.system	Ragweed plant response rating
CC1=[N+]([O-])C(C(=O)Nc2cccc(F)c2F)C(c2ccc(Br)cn2)C1 (racemic) [Compound 66]	ragweed (common ragweed, Ambrosia elatior)	0
CC1=[N+]([O-])C(C(=O)Nc2cccc(F)c2F)C(c2ccc(C#N)cc2)C1 (racemic) [Compound 22]	ragweed (common ragweed, Ambrosia elatior)	0
CC1=[N+]([O-])C(C(=O)Nc2cccc(F)c2F)C(c2ccc3c(c2)OCO3)C1 (racemic) [Compound 4]	ragweed (common ragweed, Ambrosia elatior)	0
CC1=[N+]([O-])[C@H](C(=O)Nc2cccc(F)c2F)[C@@H](c2ccc(C)cc2)C1 [Compound 42]	ragweed (common ragweed, Ambrosia elatior)	30
CC1=[N+]([O-])[C@@H](C(=O)Nc2cccc(F)c2F)[C@H](c2ccc(C(F)(F)F)cc2)C1 (relative stereo) [Compound 2]	ragweed (common ragweed, Ambrosia elatior)	30
CC1=[N+]([O-])C(C(=O)Nc2cccc(F)c2F)C(c2cccc(C(C)C)c2)C1 (racemic) [Compound 12]	ragweed (common ragweed, Ambrosia elatior)	0
CC1=[N+]([O-])C(C(=O)Nc2cccc(F)c2F)C(c2cccc(Cl)n2)C1 (centres unmarked) [Compound 89]	ragweed (common ragweed, Ambrosia elatior)	0
CC1=[N+]([O-])C(C(=O)Nc2cccc(F)c2F)C(c2ccc(C(F)(F)F)c(Cl)c2)C1 (racemic) [Compound 102]	ragweed (common ragweed, Ambrosia elatior)	20
CC1=[N+]([O-])C(C(=O)Nc2cccc(F)c2F)C(c2ccc(C(F)(F)F)c(Br)c2)C1 (racemic) [Compound 73]	ragweed (common ragweed, Ambrosia elatior)	0
CC1=[N+]([O-])[C@@H](C(=O)Nc2cccc(F)c2F)[C@H](c2cccc(OC(C)(C)C)c2)C1 [Compound 69]	ragweed (common ragweed, Ambrosia elatior)	20
CCc1cc(CC)cc(C2CC(C)=[N+]([O-])C2C(=O)Nc2cccc(F)c2F)c1 (racemic) [Compound 109]	ragweed (common ragweed, Ambrosia elatior)	0
CC1=[N+]([O-])[C@H](C(=O)Nc2cccc(F)c2F)[C@@H](c2ccc(C(F)(F)F)c(F)c2)C1 (relative stereo) [Compound 61]	ragweed (common ragweed, Ambrosia elatior)	0
CC1=[N+]([O-])[C@H](C(=O)Nc2ccc(F)nc2F)[C@@H](c2ccc(C(F)(F)F)cc2)C1 (relative stereo) [Compound 37]	ragweed (common ragweed, Ambrosia elatior)	0
CC1=[N+]([O-])C(C(=O)Nc2ccc(F)cc2F)C(c2ccc(C(F)(F)F)cc2)C1 (racemic) [Compound 46]	ragweed (common ragweed, Ambrosia elatior)	0
